Hi! I'm sharing some Ki results obtained with 5-hydroxytryptamine receptor 1A (Homo sapiens, UniProt P08908).
Sequence (P08908 whole entry): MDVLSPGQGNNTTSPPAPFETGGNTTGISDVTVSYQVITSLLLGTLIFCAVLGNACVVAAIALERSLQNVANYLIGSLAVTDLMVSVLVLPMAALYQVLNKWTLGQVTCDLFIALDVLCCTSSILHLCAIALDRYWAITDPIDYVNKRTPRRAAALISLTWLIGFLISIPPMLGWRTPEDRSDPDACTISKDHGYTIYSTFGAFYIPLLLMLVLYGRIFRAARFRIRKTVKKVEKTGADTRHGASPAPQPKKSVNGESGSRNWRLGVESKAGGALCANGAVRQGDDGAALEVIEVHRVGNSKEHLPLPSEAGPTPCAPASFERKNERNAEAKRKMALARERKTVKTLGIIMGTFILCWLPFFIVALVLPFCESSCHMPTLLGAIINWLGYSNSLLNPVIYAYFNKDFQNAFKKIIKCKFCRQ
Readout Label: Ki (µM)

1) O=C1Nc2ccccc2C12CCN(CCN1CCC(c3ccc(Cl)cc3)CC1)C2 (stereo unspecified) ... 14.9
2) O=C1Nc2ccccc2C12CCN(CCN1CCC(c3ccc(F)cc3)CC1)C2 (stereo unspecified) ... 52
3) O=C1Nc2ccccc2C12CCN(CCN1CCN(c3cccc(Cl)c3)CC1)C2 (stereo unspecified) ... 2.69
4) O=C1Nc2ccccc2C12CCN(CCN1CCN(c3ccc(Cl)cc3)CC1)C2 (stereo unspecified) ... 3.76
5) O=C1Nc2ccccc2C12CCN(CCN1CCN(c3ccc(F)cc3)CC1)C2 (stereo unspecified) ... 14.2
6) O=C1Nc2ccccc2C12CCN(CCN1CC=C(c3ccc(F)cc3)CC1)C2 (stereo unspecified) ... 3.95

###

Recorded Ratio Ki for the following molecules
Species on record: Homo sapiens
Test: Selectivity index, ratio of Ki for human 5-HT6 receptor expressed in HEK293 cell membranes to Ki for human 5-HT7b receptor expressed in HEK293 cell membranes
Format: cell-based
Readout Label: Ratio Ki

1. O=C1Nc2ccccc2C12CCN(CCCN1CCN(c3ccc(Cl)cc3)CC1)C2 (configuration not stated) ... 83
2. O=C1Nc2ccccc2C12CCN(CCN1CCN(c3ccc(Cl)c(Cl)c3)CC1)C2 (configuration not stated) ... 29.8
3. O=C1Nc2ccccc2C12CCN(CCN1CCC(Oc3ccc(Cl)cc3)CC1)C2 (configuration not stated) ... 14
4. O=C1Nc2ccccc2C12CCN(CCN1CC=C(c3ccc(F)cc3)CC1)C2 (configuration not stated) ... 146
5. O=C1Nc2ccccc2C12CCN(CCN1CCN(c3cccc(Cl)c3)CC1)C2 (configuration not stated) ... 36.5
6. O=C(c1ccc(Cl)cc1)N1CCN(CCN2CCC3(C2)C(=O)Nc2ccccc23)CC1 (configuration not stated) ... 14.6
7. O=C1Nc2ccccc2C12CCN(CCN1CCC(c3ccc(Cl)cc3)CC1)C2 (configuration not stated) ... 16.1
8. O=C1Nc2ccccc2C12CCN(CCN1CCN(c3ccc(F)cc3)CC1)C2 (configuration not stated) ... 226
9. O=C1Nc2ccccc2C12CCN(CCN1CCC(c3ccc(F)cc3)CC1)C2 (configuration not stated) ... 19.2
10. O=C1Nc2ccccc2C12CCN(CCN1CCN(c3ccccc3Cl)CC1)C2 (configuration not stated) ... 11.6
11. O=C1Nc2ccccc2C12CCN(CCN1CCN(c3ccccc3)CC1)C2 (configuration not stated) ... 65.6
12. O=C1Nc2ccccc2C12CCN(CCN1CCN(c3ccc(Cl)cc3)CC1)C2 (configuration not stated) ... 163

###

Biological target: 5-hydroxytryptamine receptor 2A (Homo sapiens, UniProt P28223)
Sequence (P28223 whole entry): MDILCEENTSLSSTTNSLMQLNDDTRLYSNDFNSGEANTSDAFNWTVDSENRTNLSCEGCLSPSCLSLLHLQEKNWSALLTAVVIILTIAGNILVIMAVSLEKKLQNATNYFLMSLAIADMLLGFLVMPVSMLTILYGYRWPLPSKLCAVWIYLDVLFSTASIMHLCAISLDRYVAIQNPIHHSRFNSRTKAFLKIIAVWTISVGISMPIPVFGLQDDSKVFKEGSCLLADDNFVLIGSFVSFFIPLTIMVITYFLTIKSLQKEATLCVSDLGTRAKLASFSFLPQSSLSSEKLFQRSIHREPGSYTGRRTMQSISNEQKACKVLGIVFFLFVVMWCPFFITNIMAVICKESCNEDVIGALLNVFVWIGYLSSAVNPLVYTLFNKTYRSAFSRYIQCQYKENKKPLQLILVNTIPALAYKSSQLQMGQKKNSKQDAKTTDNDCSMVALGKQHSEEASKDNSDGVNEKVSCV
Readout Label: Ki (nM)

1) O=C1Nc2ccccc2C12CCN(CCCN1CCN(c3ccc(Cl)cc3)CC1)C2 (centres undefined) ... 715
2) O=C1Nc2ccccc2C12CCN(CCN1CC=C(c3ccc(F)cc3)CC1)C2 (centres undefined) ... 75
3) O=C(c1ccc(Cl)cc1)N1CCN(CCN2CCC3(C2)C(=O)Nc2ccccc23)CC1 (centres undefined) ... 17300
4) O=C1Nc2ccccc2C12CCN(CCN1CCC(Oc3ccc(Cl)cc3)CC1)C2 (centres undefined) ... 343
